Hello, the source for this data is the RNAGym collection of RNA variant scans (doi:10.1073/pnas.2313332121), in case you need it.

B1: TPR t1 (parent)
chain: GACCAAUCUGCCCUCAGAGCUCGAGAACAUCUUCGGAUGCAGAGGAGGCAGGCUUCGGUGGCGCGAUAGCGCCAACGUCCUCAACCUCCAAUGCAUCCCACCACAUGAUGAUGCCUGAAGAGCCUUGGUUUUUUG

Variants of: B1
method notes: polymerase ribozyme fitness, log enrichment relative to wild type (log ratio); higher = more active; in vitro selection for triplet polymerase activity
measurement name: polymerase ribozyme fitness (log ratio)
Answers are plain numbers.

# count of solved cases: 2
variant identifier	polymerase ribozyme fitness (log ratio)
C13G G52U A68G A111C C124U U133C	-4.14
A2G C56U	0.13

Field: polymerase ribozyme fitness (log ratio). Fill in for each record below.
1. C40U C53A G113C
2. C3U U9A C73A C79A U92G
3. G10C A43U C62A C114U U116C U133G
4. A16G G93A U109G
5. C12U A43U
6. G45U G77U G93U G120U
7. G61A U87C

1: -2.73; 2: -3.38; 3: -6.43; 4: -5.43; 5: -1.51; 6: -3.3; 7: -0.201

Below is a list of variants. For each, state its recorded polymerase ribozyme fitness (log ratio).
1. U21G A37G A41U U78C G113U
2. C20U G35C G57U C80U U129G
3. C101U C115U C124U
4. G58C C85A
5. C99U A118G

[-2.05, -5.92, -0.886, 0.0552, -2.48]

Report polymerase ribozyme fitness (log ratio) for each item below.
1. A50C
2. G42C G93A C97U C115U
3. C3U C123G
4. G10C G52U C53A
5. G17A G23U G61U C76U C114A

[-0.212, -5.15, 1.6, -1.16, -5.73]

Batch of 5 variants: report polymerase ribozyme fitness (log ratio) for each.
1. C40G A74G C86A
2. C22A C56G
3. G36A C40A C53G U59C C124G
4. G60C C124U G135A
5. C49A A90U

[-1.94, -4.66, -2.06, 2.05, -0.956]
